Data origin, for the record: paper PMC9043816

# Tested on: human breast carcinoma cell line (MCF-7)
# assayProtocol: MTS cytotoxicity assay, MCF-7
# Format: cell-based
# experimentalSetup: Homo sapiens, MCF7, 48 h, read-out: IC50 MCF-7, MTS, 48 h treatment
As shown below, each of these compounds has a reported pIC50 value.
Please report pIC50 as the negative decimal logarithm of the molar concentration, giving only the number.

Exam item: What value of pIC50 has been reported for the following compound? COc1ccc(CS(=O)(=O)c2ccc3ccccc3c2)cc1N [12b]
Marked response: 6.96

Exam item: Item COc1cc(OC)c(/C=C/S(=O)(=O)Cc2ccc(OC)c(NCC(=O)O)c2)c(OC)c1 [Rigosertib, reference compound] has what recorded pIC50?
Marked response: 7.66

Would you kindly look at the next entry?
Exam item: What does the record list as pIC50 for COc1ccc(C[S+]([O-])c2ccc3ccccc3c2)cc1NCC(=O)O (stereo not shown) [15a] ?
Marked response: 5.69

----------
# System: human hepatoma carcinoma cell lines (HepG2)
# assayProtocol: MTS cytotoxicity assay, HepG2
# Format: cell-based
# experimentalSetup: Homo sapiens, HepG2, 48 h, read-out: IC50 HepG2, MTS, 48 h treatment
Recorded IC50 for the following molecules
Use nM as the unit, but write only the number.

Exam item: Please report the recorded IC50 for COc1ccc(C[S+]([O-])c2ccc3ccccc3c2)cc1NCC(=O)O (stereo not shown) [15a] .
Marked response: 5080

Exam item: GET /values?readout=IC50&item= COc1ccc(CS(=O)(=O)c2ccc3ccccc3c2)cc1N [12b]
Marked response: 43

Exam item: Look up IC50 for this molecule: COc1ccc(C[S+]([O-])c2ccc3ccccc3c2)cc1N (stereo not shown) [12a]
Marked response: 434

Exam item: Return reported IC50; argument: COc1cc(OC)c(/C=C/S(=O)(=O)Cc2ccc(OC)c(NCC(=O)O)c2)c(OC)c1 [Rigosertib, reference compound]
Marked response: 108

Exam item: For COc1ccc(CS(=O)(=O)c2ccc3cc(Br)ccc3c2)cc1N [12d] , what is its reported IC50?
Marked response: 402

***
Exam item: Entry under review: COc1ccc(CSc2ccc3ccccc3c2)cc1N [12e] . Reported IC50?
Marked response: 42600

Exam item: Consider the molecule shown here: COc1ccc(C[S+]([O-])c2ccc3cc(Br)ccc3c2)cc1N (stereo not shown) [12c] What is its recorded IC50?
Marked response: 1310

----------
Reported log10(IC50) values follow for various molecules
# Test system: human cervical carcinoma cell line (HeLa)
# assayProtocol: MTS cytotoxicity assay, HeLa
# Type: cell-based
# experimentalSetup: Homo sapiens, HeLa, 48 h, read-out: IC50 HeLa, MTS, 48 h treatment
In plain terms, each number is the log10 of measured IC50 in nM.

Exam item: May I ask what log10(IC50) has been recorded for COc1ccc(CS(=O)(=O)c2ccc3ccccc3c2)cc1N [12b] ?
Marked response: 1.48

Exam item: // query log10(IC50) value for entry COc1ccc(C[S+]([O-])c2ccc3cc(Br)ccc3c2)cc1N (stereo not shown) [12c]
Marked response: 1.96

----------
# Test system: human tongue carcinoma cell line (SCC-15)
# assayProtocol: MTS cytotoxicity assay, SCC-15
# Assay type: cell-based
# experimentalSetup: read-out: IC50 SCC-15; MTS, 48 h treatment
measurementType: pIC50
Expect pIC50 as a plain number equal to -log10 of the molar concentration.

Exam item: // lookup pIC50 for COc1ccc(CS(=O)(=O)c2ccc3ccccc3c2)cc1NCC(=O)O [15b]
Marked response: 7.82

----------
# System: human hepatoma carcinoma cell lines (HepG2)
# assayProtocol: MTS cytotoxicity assay, HepG2
# Type: cell-based
# experimentalSetup: read-out: IC50 HepG2; MTS, 48 h treatment
measurementType: IC50 (nM)
Could you give me the number in nM? Just the number is fine.

Exam item: # value lookup — system human hepatoma carcinoma cell lines (HepG2), readout IC50, item COc1ccc(CS(=O)(=O)c2ccc3ccccc3c2)cc1NCC(=O)O [15b]
Marked response: 390

----------
# System: human cervical carcinoma cell line (HeLa)
# assayProtocol: MTS cytotoxicity assay, HeLa
# Assay type: cell-based
# experimentalSetup: read-out: IC50 HeLa; MTS, 48 h treatment
measurementType: pIC50
Scale for pIC50: -log10 of concentration given in mol/L; no unit attached.

Exam item: Which measured pIC50 value corresponds to COc1ccc(CS(=O)(=O)c2ccc3ccccc3c2)cc1NCC(=O)O [15b] ?
Marked response: 7.19

----------
# System: human breast carcinoma cell line (MCF-7)
# assayProtocol: MTS cytotoxicity assay, MCF-7
# Format: cell-based
# experimentalSetup: Homo sapiens, MCF7, 48 h, read-out: IC50 MCF-7, MTS, 48 h treatment
measurementType: IC50 (nM)
State just the number; it will be interpreted in nM.

Use the examples below as a reference point.
Exam item: Report IC50 for COc1ccc(C[S+]([O-])c2ccc3cc(Br)ccc3c2)cc1N (stereo not shown) [12c] please.
Marked response: 858

Exam item: Look at this molecule and give its reported IC50. COc1ccc(CS(=O)(=O)c2ccc3cc(Br)ccc3c2)cc1N [12d]
Marked response: 95

Exam item: What value of IC50 has been recorded for this entry: COc1ccc(C[S+]([O-])c2ccc3ccccc3c2)cc1N (stereo not shown) [12a]
Marked response: 681

Okay, next one:
Exam item: Would you mind telling me what IC50 value was observed for COc1ccc(CSc2ccc3ccccc3c2)cc1N [12e] ?
Marked response: 17500

----------
# Tested on: human cervical carcinoma cell line (HeLa)
# assayProtocol: MTS cytotoxicity assay, HeLa
# Format: cell-based
# experimentalSetup: Homo sapiens, HeLa, 48 h, read-out: IC50 HeLa, MTS, 48 h treatment
measurementType: pIC50
Scale explanation: pIC50 corresponds to minus log10 of a concentration expressed in moles per litre.

Illustrative cases are given below, each with its answer.
Exam item: I'd like to know its pIC50. The molecule in question is COc1ccc(CS(=O)(=O)c2ccc3cc(Br)ccc3c2)cc1N [12d]
Marked response: 7.19

Exam item: Requested field: pIC50. Item: COc1ccc(C[S+]([O-])c2ccc3ccccc3c2)cc1N (centres unmarked) [12a]
Marked response: 6.76

Exam item: // pIC50 lookup, key: COc1ccc(C[S+]([O-])c2ccc3ccccc3c2)cc1NCC(=O)O (centres unmarked) [15a]
Marked response: 6.64

Exam item: Reported pIC50, molecule COc1ccc(CSc2ccc3ccccc3c2)cc1N [12e] : ____
Marked response: 5.39

--- query ---
Exam item: Recorded pIC50 for COc1cc(OC)c(/C=C/S(=O)(=O)Cc2ccc(OC)c(NCC(=O)O)c2)c(OC)c1 [Rigosertib, reference compound] , please?
Marked response: 7.19
